Origin of measurements: patent US20220081434A1

Each item that follows carries a reported Cmax.
- assayOverview: Pharmacokinetic experiments in ICR mice (plasma)
- Type: in vivo
- measurementParameters: mouse, single oral administration 10 mg/kg, plasma
Supply the numeric figure in ng/mL, leaving out any unit text.

[[record]]
compound = "COCc1ncc(-c2cc3c(cc2OC)-c2cc(=O)c(C(=O)O)cn2C(C(C)(C)C)C3)s1 (centres unmarked)"
readoutunits = "ng/mL"
reportedmeasurement = 458


Record summary for CNC(=O)c1ncc(-c2cc3c(cc2OC)-c2cc(=O)c(C(=O)O)cn2C(C(C)(C)C)C3)s1 (centres unmarked) : reported Cmax = 2420

----------
- assayOverview: Pharmacokinetic experiments in ICR mice (plasma)
- Format: in vivo
- measurementParameters: mouse, single oral administration 10 mg/kg, plasma
readout: half-life (h)
Supply the numeric figure in h, leaving out any unit text.

Record summary for COCc1ncc(-c2cc3c(cc2OC)-c2cc(=O)c(C(=O)O)cn2C(C(C)(C)C)C3)s1 (centres unmarked) [Example 10] : reported half-life = 2.6

Record summary for CNC(=O)c1ncc(-c2cc3c(cc2OC)-c2cc(=O)c(C(=O)O)cn2C(C(C)(C)C)C3)s1 (centres unmarked) [Example 19] : reported half-life = 2.5

----------
- assayOverview: Pharmacokinetic experiments in ICR mice (plasma)
- Format: in vivo
- measurementParameters: mouse, plasma, oral 10 mg/kg vs intravenous 2 mg/kg, read-out: F (bioavailability)
readout: bioavailability (%)
Supply the numeric figure in %, leaving out any unit text.

[[record]]
compound = "CNC(=O)c1ncc(-c2cc3c(cc2OC)-c2cc(=O)c(C(=O)O)cn2C(C(C)(C)C)C3)s1 (centres unmarked) [Example 19]"
reportedmeasurement = 87


For the next question, use this compound.
Record summary for COCc1ncc(-c2cc3c(cc2OC)-c2cc(=O)c(C(=O)O)cn2C(C(C)(C)C)C3)s1 (centres unmarked) [Example 10] : reported bioavailability = 33.9

----------
Each item that follows carries a reported IC50.
- Tested on: hepatitis B surface antigen (HBsAg)
- assayOverview: Determination of hepatitis B surface antigen (HBsAg) in HepG2.2.15 cell supernatant
- Format: cell-based, hepatitis B virus (HepG2.2.15 cells)
- measurementParameters: Hepatitis B virus, HepG2.2.15, 96 h, read-out: HBsAg inhibitory activity IC50
Supply the numeric figure in nM, leaving out any unit text.

[[record]]
molecule = "COc1cc2c(cc1-c1cnc(N(C)C)s1)CC(C(C)(C)C)n1cc(C(=O)O)c(=O)cc1-2 (stereo not shown)"
reportedmeasurement = 0.3

[[record]]
molecule = "COCCNC(=O)c1ncc(-c2cc3c(cc2OC)-c2cc(=O)c(C(=O)O)cn2C(C(C)(C)C)C3)s1 (stereo not shown)"
reportedmeasurement = 0.4


For the next question, use this molecule.
Record summary for COc1cc2c(cc1-c1cnc(C(C)(C)OC)s1)CC(C(C)(C)C)n1cc(C(=O)O)c(=O)cc1-2 (stereo not shown) : reported IC50 = 0.3

----------
- Tested on: hepatitis B surface antigen (HBsAg)
- assayOverview: Determination of hepatitis B surface antigen (HBsAg) in HepG2.2.15 cell supernatant
- Format: cell-based, hepatitis B virus (HepG2.2.15 cells)
- measurementParameters: Hepatitis B virus, HepG2.2.15, 96 h, read-out: HBsAg inhibitory activity IC50
readout: IC50 (nM)
Supply the numeric figure in nM, leaving out any unit text.

Consider the following illustrative entries.
[[record]]
molecule = "CNC(=O)c1ncc(-c2cc3c(cc2OC)-c2cc(=O)c(C(=O)O)cn2C(C(C)(C)C)C3)s1 (stereo not shown)"
measuredtarget = "hepatitis B surface antigen (HBsAg)"
reportedmeasurement = 0.3

[[record]]
molecule = "COc1cc2c(cc1-c1cnc(COC3CC3)s1)CC(C(C)(C)C)n1cc(C(=O)O)c(=O)cc1-2 (stereo not shown)"
measuredtarget = "hepatitis B surface antigen (HBsAg)"
reportedmeasurement = 0.2

[[record]]
molecule = "CCCc1ncc(-c2cc3c(cc2OC)-c2cc(=O)c(C(=O)O)cn2C(C(C)(C)C)C3)s1 (stereo not shown)"
measuredtarget = "hepatitis B surface antigen (HBsAg)"
reportedmeasurement = 0.09

[[record]]
molecule = "COc1ncc(-c2cc3c(cc2OC)-c2cc(=O)c(C(=O)O)cn2C(C(C)(C)C)C3)s1 (stereo not shown)"
measuredtarget = "hepatitis B surface antigen (HBsAg)"
reportedmeasurement = 0.45

[[record]]
molecule = "COc1cc2c(cc1-c1cnc(N3CCC(OC)CC3)s1)CC(C(C)(C)C)n1cc(C(=O)O)c(=O)cc1-2 (stereo not shown)"
measuredtarget = "hepatitis B surface antigen (HBsAg)"
reportedmeasurement = 0.2


Record summary for COCc1ncc(-c2cc3c(cc2OC)-c2cc(=O)c(C(=O)O)cn2C(C(C)(C)C)C3)s1 (stereo not shown) : reported IC50 = 0.2

Record summary for COc1cc2c(cc1-c1cnc(N3CC(F)(F)C3)s1)CC(C(C)(C)C)n1cc(C(=O)O)c(=O)cc1-2 (stereo not shown) : reported IC50 = 0.045

----------
- assayOverview: Pharmacokinetic experiments in ICR mice (plasma)
- Type: in vivo
- measurementParameters: mouse, single oral administration 10 mg/kg, plasma, read-out: AUC0-12
readout: AUC(0-t) (ng·h/mL)
Supply the numeric figure in ng·h/mL, leaving out any unit text.

[[record]]
molecule = "CNC(=O)c1ncc(-c2cc3c(cc2OC)-c2cc(=O)c(C(=O)O)cn2C(C(C)(C)C)C3)s1 (centres unmarked) [Example 19]"
readout = "AUC(0-t)"
readoutunits = "ng·h/mL"
reportedmeasurement = 5210


For the next question, use this molecule.
Record summary for COCc1ncc(-c2cc3c(cc2OC)-c2cc(=O)c(C(=O)O)cn2C(C(C)(C)C)C3)s1 (centres unmarked) [Example 10] : reported AUC(0-t) = 1350

----------
- assayOverview: Pharmacokinetic experiments in ICR mice (plasma)
- Format: in vivo
- measurementParameters: mouse, single intravenous injection 2 mg/kg, plasma
readout: half-life (h)
Supply the numeric figure in h, leaving out any unit text.

[[record]]
molecule = "COCc1ncc(-c2cc3c(cc2OC)-c2cc(=O)c(C(=O)O)cn2C(C(C)(C)C)C3)s1 (centres unmarked)"
readout = "half-life"
reportedmeasurement = 1.9


For the next question, use this molecule.
Record summary for CNC(=O)c1ncc(-c2cc3c(cc2OC)-c2cc(=O)c(C(=O)O)cn2C(C(C)(C)C)C3)s1 (centres unmarked) : reported half-life = 1.3

----------
Each item that follows carries a reported IC50.
- Tested on: hepatitis B surface antigen (HBsAg)
- assayOverview: Determination of hepatitis B surface antigen (HBsAg) in HepG2.2.15 cell supernatant
- Type: cell-based, hepatitis B virus (HepG2.2.15 cells)
- measurementParameters: Hepatitis B virus, HepG2.2.15, 96 h, read-out: HBsAg inhibitory activity IC50
Supply the numeric figure in nM, leaving out any unit text.

[[record]]
compound = "COc1cc2c(cc1-c1cnc(N3CCC3)s1)CC(C(C)(C)C)n1cc(C(=O)O)c(=O)cc1-2 (stereo not shown) [Example 3]"
reportedmeasurement = 0.07


Record summary for COc1cc2c(cc1-c1cnc(N3CCC(O)CC3)s1)CC(C(C)(C)C)n1cc(C(=O)O)c(=O)cc1-2 (stereo not shown) [Example 1] : reported IC50 = 0.33

Record summary for CCOCc1ncc(-c2cc3c(cc2OC)-c2cc(=O)c(C(=O)O)cn2C(C(C)(C)C)C3)s1 (stereo not shown) [Example 14] : reported IC50 = 0.2

Record summary for COc1cc2c(cc1-c1cnc(C(C)O)s1)CC(C(C)(C)C)n1cc(C(=O)O)c(=O)cc1-2 (stereo not shown) [Example 16] : reported IC50 = 0.1

----------
- assayOverview: Pharmacokinetic experiments in ICR mice (plasma)
- Assay type: in vivo
- measurementParameters: mouse, single intravenous injection 2 mg/kg, plasma
readout: Cmax (ng/mL)
Supply the numeric figure in ng/mL, leaving out any unit text.

[[record]]
molecule = "CNC(=O)c1ncc(-c2cc3c(cc2OC)-c2cc(=O)c(C(=O)O)cn2C(C(C)(C)C)C3)s1 (centres unmarked)"
readoutunits = "ng/mL"
reportedmeasurement = 1020


For the next question, use this molecule.
Record summary for COCc1ncc(-c2cc3c(cc2OC)-c2cc(=O)c(C(=O)O)cn2C(C(C)(C)C)C3)s1 (centres unmarked) : reported Cmax = 423

----------
- assayOverview: Pharmacokinetic experiments in ICR mice (plasma)
- Format: in vivo
- measurementParameters: mouse, single intravenous injection 2 mg/kg, plasma
readout: Tmax (min)
Supply the numeric figure in min, leaving out any unit text.

[[record]]
compound = "CNC(=O)c1ncc(-c2cc3c(cc2OC)-c2cc(=O)c(C(=O)O)cn2C(C(C)(C)C)C3)s1 (centres unmarked)"
readout = "Tmax"
readoutunits = "min"
reportedmeasurement = 4.8


For the next question, use this compound.
Record summary for COCc1ncc(-c2cc3c(cc2OC)-c2cc(=O)c(C(=O)O)cn2C(C(C)(C)C)C3)s1 (centres unmarked) : reported Tmax = 4.8
